Listing: TGI of selected molecules
Tested on: CAKI-1 renal
Assay: NCI tumour cell line growth inhibition, 48 h
ASSAY METRIC: TGI

COC(=O)c1c(-c2ccc(Cl)cc2)cc2c3ccccc3n(C)c2c1C(=O)OC; > 100 µM
NS(=O)(=O)c1ccc(NNc2c3ccccc3nc3c(C(=O)Nc4ccc(S(=O)(=O)Nc5ncccn5)cc4)cccc23)cc1; > 25 µM
NC(=O)Cc1nc2c(=O)[nH]cnc2n1C1OC(CO)C(O)C1O (stereo unspecified); > 100 µM
CCC1CNC(=O)CC1CC(=O)OC (stereo unspecified); > 100 µM
CCN(CC)CCN(C(=O)C(C)(C)C)c1ccccc1N; > 100 µM
N[C@@H]1CCCC[C@@H]1N.O=P([O-])([O-])CN(CP(=O)([O-])[O-])CP(=O)([O-])[O-].[Pt+2]; > 100 µM

----------
Test system: IGROV1 ovarian
Labels: active, inactive

Cc1cc(Cl)ccc1Nc1nc(C(F)(F)F)ccc1C(=O)N1CCN(c2cccc(Cl)c2)CC1; inactive
CC1CC2(C)CC(=O)C1C1C(=O)N(CCN3CCCCC3)C(=O)C12 (stereo unspecified); inactive
Cc1cc(Cl)ccc1NS(=O)(=O)c1ccc(-c2cnc(C3CC3)o2)cc1; active
CO[C@@]12[C@@H]3NC3CN1C1=C(C(=O)C(N)=C(C)C1=O)[C@@H]2COC(N)=O (stereo partly specified); inactive
O=C(Cc1csc2nc(-c3ccc(Br)cc3)cn12)N/N=C/c1ccc(O)cc1; inactive
COc1ccccc1CNCCCCCCCCCCCCN1C(=O)c2ccc3c4c(ccc(c24)C1=O)C(=O)N(CCCCCCCCCCCCNCc1ccccc1OC)C3=O; inactive

----------
TGI values for the compounds below.
Tested on: HCC-2998 colon
Assay: NCI tumour cell line growth inhibition, 48 h
ASSAY METRIC: TGI

CCCNc1ncnc2[nH]ncc12; > 100 µM
S=C(NCc1ccccc1)N/N=C/c1ccccn1; > 68.5 µM
CCC1CNC(=O)CC1CC(=O)OC (stereo unspecified); > 100 µM
O=c1c2ccccc2oc2ccc(OCCCCCCN3CCCCCC3)cc12; 11.6 µM
NS(=O)(=O)c1ccc(NNc2c3ccccc3nc3c(C(=O)Nc4ccc(S(=O)(=O)Nc5ncccn5)cc4)cccc23)cc1; > 25 µM
CC1OC2OC3C(OCC(O)C3O)OC(=O)[C@]34CCC(C)(C)CC3C3=CCC5[C@@]6(C)C[C@H](O)[C@H](OC7OC(CO)C(O)C(O)C7OC7OCC(OC(=O)CC(C)(O)CC(=O)OC1C(OC1OC(CO)C(O)C(O)C1O)C2O)C(O)C7O)[C@@](C)(CO)C6CC[C@@]5(C)[C@]3(C)CC4 (stereo partly specified); 8.52 µM

----------
System: UO-31 renal
Listed next: entries and their corresponding GI50.
ASSAY METRIC: GI50

C=[CH][Sn]([CH]=C)([O]c1cccc2cccnc12)[O]c1cccc2cccnc12; 3250 nM
O=C(Nc1cccc(-n2cc(-c3ccncc3)c(-c3ccc(O)c(Cl)c3)n2)c1)c1cccc(C(F)(F)F)c1; 4290 nM
COc1cccc(/C=C/C(=O)c2cc3c(N)c(C(=O)Nc4cccc5ccccc45)sc3nc2C)c1; 889 nM
O=c1c2ccccc2oc2ccc(OCCCCCCN3CCCCCC3)cc12; 2050 nM
Cc1cc(Cl)ccc1NS(=O)(=O)c1ccc(-c2cnc(C3CC3)o2)cc1; 619 nM
CC1(C)CC[C@]2(C(N)=O)CC[C@]3(C)C(=CC[C@@H]4[C@@]5(C)C/C(=C/c6ccncc6)C(=O)C(C)(C)[C@@H]5CC[C@]43C)[C@@H]2C1; 1480 nM
Nc1ccc(S(=O)(=O)Nc2cnc3c(Cl)cccc3n2)cc1; > 55800 nM
CC1(C)OC2C(COS(N)(=O)=O)SC(n3cnc4cncnc43)C2O1 (centres undefined); > 100000 nM
Oc1[nH]c2cc(Cl)ccc2c1/C=c1/ccc2c(c1)N=C(c1cc(F)cc(F)c1)N=2; 3680 nM
